Some compounds, each annotated with its measured inhibition at 10 µM.
target: recombinant human PAI-1 (Homo sapiens); assay: biochemical; settings: read-out: Inhibition Rate of PAI-1 Activity (%), Compound Concentration 10µM
measured-metric: inhibition at 10 µM (%)

* CCN(CC)c1ccc(N(CCCc2ccccc2)C(=O)C(=O)O)c(-c2ccc(OC(F)(F)F)cc2)c1 | 95
* CCCCCOc1ccc(-c2ccc(OC(F)(F)F)cc2)cc1N(Cc1ccc(C(C)(C)C)cc1)C(=O)C(=O)O | 84
* O=C(O)CCc1cc(-c2ccc(OC(F)(F)F)cc2)ccc1OCCCCc1ccccc1 | 74
* CCCCc1ccc(CN(C(=O)C(=O)O)c2ccc(-c3ccc(C(C)(C)C)cc3)cc2)cc1 | 92

----------
biological target: recombinant human PAI-1 (Homo sapiens, UniProt P05121); test: biochemical; conditions: read-out: Inhibition Rate of PAI-1 Activity (%)
Sequence (P05121 24-402): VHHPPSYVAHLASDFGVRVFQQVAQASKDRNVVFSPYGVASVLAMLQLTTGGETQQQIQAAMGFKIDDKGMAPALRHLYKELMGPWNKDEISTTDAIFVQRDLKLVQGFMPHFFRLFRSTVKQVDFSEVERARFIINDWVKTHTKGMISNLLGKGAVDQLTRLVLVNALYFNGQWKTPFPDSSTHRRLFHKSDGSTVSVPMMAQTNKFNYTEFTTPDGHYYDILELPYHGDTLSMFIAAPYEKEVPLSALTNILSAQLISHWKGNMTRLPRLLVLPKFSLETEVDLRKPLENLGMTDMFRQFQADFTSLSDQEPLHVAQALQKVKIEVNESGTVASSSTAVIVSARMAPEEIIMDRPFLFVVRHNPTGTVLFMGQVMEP
measured-metric: inhibition at 25 µM (%)

- CC(C)(C)c1ccc(Oc2ccc(Oc3ccc(OC(F)(F)F)cc3)cc2CCC(=O)O)cc1: 98
- O=C(O)C(=O)N(Cc1c(Cl)cccc1Cl)c1ccc(-c2ccc(OC(F)(F)F)cc2)cc1: 81
- CCCOc1ccc(N(Cc2ccccc2)C(=O)C(=O)O)cc1-c1ccc(OC(F)(F)F)cc1: 94
- O=C(O)C(=O)N(Cc1ccc(Cl)cc1Cl)c1ccc(-c2ccc(OC(F)(F)F)cc2)cc1: 76

----------
molecular target: recombinant human PAI-1 (Homo sapiens); experiment: Test Example 2: Human PAI-1 Inhibitory Activity (pH 7.4 HEPES buffer, 10 minutes incubation with two-chain tPA); assay type: biochemical; parameters: purchased Molecular Innovations, Inc; conditions: read-out: Inhibition Rate of PAI-1 Activity (%)
measured-metric: inhibition at 0.3 µM (%)

• O=C(O)/C=C/c1cc(-c2ccc(OC(F)(F)F)cc2)ccc1OCCCCCOc1ccc(-c2ccc(OC(F)(F)F)cc2)cc1/C=C/C(=O)O [Compound 543] = 1
• CCCCOc1ccc(N(Cc2ccc(C(C)(C)C)cc2)C(=O)C(=O)O)cc1-c1ccc(OC(F)(F)F)cc1 [Compound 193] = 5
• CCCCC(Oc1cc(Oc2ccc(OC(F)(F)F)cc2)ccc1OCc1ccc(C(C)(C)C)cc1)C(=O)O (stereo not drawn) [Compound 308] = 22
• CCCCC(Nc1cc(-c2ccc(OC(F)(F)F)cc2)ccc1Oc1ccc(C(C)(C)C)cc1)C(=O)O (stereo not drawn) [Compound 423] = 1
• CCCCCCCCCOc1cc(N(CCCCc2ccccc2)C(=O)C(=O)O)ccc1-c1ccc(OC(F)(F)F)cc1 [Compound 389] = 97
• CCCCC(Oc1cc(-c2ccc(OC(F)(F)F)cc2)ccc1OCCCCc1ccc(F)cc1)C(=O)O (stereo not drawn) [Compound 324] = 1
• Cc1cc(C)cc(COc2ccc(-c3ccc(OC(F)(F)F)cc3)cc2N(CCCCc2ccccc2)C(=O)C(=O)O)c1 [Compound 662] = 28
• O=C(O)CCc1cc(-c2ccc(OC(F)(F)F)cc2)ccc1OCCCCCOc1ccc(-c2ccc(OC(F)(F)F)cc2)cc1CCC(=O)O [Compound 544] = 3
• CC(C)(C)c1ccc(Oc2cc(-c3ccc(C(C)(C)C)cc3)ccc2/C=C/C(=O)O)cc1 [Compound 495] = 64
• CC(C)(C)c1ccc(Sc2cc(-c3ccc(OC(F)(F)F)cc3)ccc2/C=C\C(=O)O)cc1 [Compound 529] = 29
• CC(Oc1cc(-c2ccc(OC(F)(F)F)cc2)ccc1/C=C/C(=O)O)c1ccccc1 (stereo not drawn) [Compound 500] = 14
• CCCCCCC(Oc1cc(-c2ccc(OC(F)(F)F)cc2)ccc1Oc1ccc(C(F)(F)F)cc1)C(=O)O (stereo not drawn) [Compound 327] = 15
• O=C(O)C(=O)N(CCCCc1ccccc1)c1cc(-c2ccc(OC(F)(F)F)cc2)ccc1OC1CCCCCC1 [Compound 659] = 26
• O=C(O)C(=O)N(CCCCc1ccccc1)c1cc(-c2ccc(OC(F)(F)F)cc2)ccc1N1CCCCC1 [Compound 370] = 0
• CCCCCOc1cc(-c2ccc(OC(F)(F)F)cc2)ccc1CN(CC(=O)O)c1ccc(C(C)(C)C)cc1 [Compound 649] = 64
